Tested on: A549-CANX-COX4
PROTOCOL: phenotypically active (imaging signature differs from DMSO and reproducible) at any of 0.3-9 uM (binary (1 = active, 0 = inactive)); higher = active
CONDITION INFO: treatment time: 24 h
Permitted responses: active, inactive

>>> df
                            compound_smiles   group
0  COc1cc(OC2CCN(C)CC2)ccc1Nc1ncc2c(n1)n(C1CCCC1)c(=O)n2C  active

Inquiry: Record request — test call for `CN1C/C(=C/c2ccc(B(O)O)cc2)C(=O)/C(=C/c2ccc(B(O)O)cc2)C1`
Reply text: active

Inquiry: And what about the compound `OCCn1cc(-c2cnc3nnn(Cc4ccc5ncccc5c4)c3n2)cn1` ?
Reply text: inactive

Inquiry: And what about the compound `O=[N+]([O-])c1c(Nc2cc(F)cc(Cl)c2)ccc2nonc12` ?
Reply text: inactive

Inquiry: And what about the compound `CC(C)c1ccc(-c2cc(=O)c3ccccc3o2)cc1` ?
Reply text: inactive

Inquiry: And what about the compound `C/N=C(\NC#N)NCCSCc1nc[nH]c1C` ?
Reply text: inactive

---

Documented phenotypically active across a set of molecules
Tested on: A549-ACTB-RAB5A
PROTOCOL: phenotypically active (imaging signature differs from DMSO and reproducible) at any of 0.3-9 uM (binary (1 = active, 0 = inactive)); higher = active
CONDITION INFO: treatment time: 24 h
Structures can show the parent of a compound that is named as a salt.
Answer with a number only.

Inquiry: I would be grateful if you could share the reported phenotypically active for `Nn1nnc2ccccc21` .
Reply text: 0

Inquiry: And what about the molecule `Fc1ccc(Cl)cc1-c1nc(Nc2ccncc2)c2nccnc2n1` ?
Reply text: 0

Inquiry: And what about the molecule COc1ccc(C[C@@H]2c3cc(OC)c(OC)cc3CC[N@+]2(C)CCC(=O)OCCCCCOC(=O)CC[N@@+]2(C)CCc3cc(OC)c(OC)cc3[C@H]2Cc2ccc(OC)c(OC)c2)cc1OC [Cisatracurium besylate] ?
Reply text: 0

Inquiry: And what about the molecule C[C@@H]1C[C@H]2[C@@H]3C[C@H](F)C4=CC(=O)C=C[C@]4(C)[C@@]3(F)[C@@H](O)C[C@]2(C)[C@@]1(O)C(=O)COC(=O)C(C)(C)C [flumethasone pivalate] ?
Reply text: 1

Inquiry: And what about the molecule C#C[C@]1(O)CC[C@H]2[C@@H]3CCc4cc(OC)ccc4[C@H]3CC[C@@]21C [mestranol] ?
Reply text: 0

Inquiry: And what about the molecule Nc1ncnc2c1nc(Cl)n2C1O[C@H](CO)[C@@H](O)[C@H]1O (some centres undefined) [8-Chloroadenosine] ?
Reply text: 1

Inquiry: And what about the molecule `COc1cc(N2CCC(N)CC2)ccc1Nc1ncc(Cl)c(-c2c[nH]c3ccccc23)n1` ?
Reply text: 1

Inquiry: And what about the molecule C(=C/c1ccccc1)/CN1CCN(C(c2ccccc2)c2ccccc2)CC1 [cinnarazine] ?
Reply text: 0

Inquiry: And what about the molecule COc1cc2c(cc1-c1c(C)noc1C)ncc1[nH]c(=O)n([C@H](C)c3ccccn3)c12 [I-BET 151 dihydrochloride] ?
Reply text: 1

Inquiry: And what about the molecule `COc1cc(N2CCC(N3CCN(C)CC3)CC2)ccc1Nc1ncnc(Nc2ccccc2S(=O)(=O)C(C)C)n1` ?
Reply text: 1

Inquiry: And what about the molecule `O=C(O)c1ccc(O)c2ncccc12` ?
Reply text: 0

Inquiry: And what about the molecule O=C1C=C(O)C(=O)c2ccccc21 [2-Hydroxy-[1,4]naphthoquinone] ?
Reply text: 0

Inquiry: And what about the molecule COc1ccc(C[C@H](N)C(=O)N[C@H]2[C@@H](O)[C@H](n3cnc4c(N(C)C)ncnc43)O[C@@H]2CO)cc1 [Puromycin dihydrochloride] ?
Reply text: 1

Inquiry: And what about the molecule Cc1ccc(NC2=CC(=O)c3sc(C)nc3C2=O)cc1 [Ryuvidine] ?
Reply text: 1

Inquiry: And what about the molecule `CC(=O)Nc1ccc(C(=O)Nc2ccccc2N)cc1` ?
Reply text: 1

Inquiry: And what about the molecule O=C(O)CCc1ccccc1 [Hydrocinnamic acid] ?
Reply text: 0

Inquiry: And what about the molecule Cc1ccc(O)c([C@H](CCN(C(C)C)C(C)C)c2ccccc2)c1 [Tolterodine L-tartrate] ?
Reply text: 1

---

Documented phenotypically active across a set of compounds
Test system: WPMY1-CANX-COX4
PROTOCOL: phenotypically active (imaging signature differs from DMSO and reproducible) at any of 0.3-9 uM (binary (1 = active, 0 = inactive)); higher = active
CONDITION INFO: treatment time: 24 h
Structures can show the parent of a compound that is named as a salt.
Answer with a number only.

Take a look at these entries with their results.
In [3]: df
Out[3]:
                                   compound  target_or_test_system          property_name  experimental_result
0  Fc1ccc(-c2c3cccc(C(F)(F)F)c3nn2Cc2ccc(F)cc2Cl)cc1        WPMY1-CANX-COX4  phenotypically active                    0
1  Cn1cc(-c2ccc3nnc(Sc4ccc5ncccc5c4)n3n2)cn1        WPMY1-CANX-COX4  phenotypically active                    0
2  CN1CCC(CN2c3ccccc3Sc3ccccc32)C1 (centres undefined)        WPMY1-CANX-COX4  phenotypically active                    1
3  CN(C(=O)CCCOc1ccc2[nH]c(=O)ccc2c1)C1CCCCC1 [Cilostamide]        WPMY1-CANX-COX4  phenotypically active                    0
4  COC(=O)C1=C(C)NC(C)=C(C(=O)OC(C)C)C1c1cccc2nonc12 (centres undefined)        WPMY1-CANX-COX4  phenotypically active                    0
5                     NC12CC3CC(CC(C3)C1)C2        WPMY1-CANX-COX4  phenotypically active                    0
6  CC(C)(N)c1cc(C(=O)N[C@@H]2CCc3ccc(OC4=C5CCC(=O)N=C5NC=C4)cc3C2)cc(C(F)(F)F)c1 [ML 786 dihydrochloride]        WPMY1-CANX-COX4  phenotypically active                    1
7  O=S(=O)(NCCCCCCc1ccccc1)c1cccc2c(Cl)cccc12        WPMY1-CANX-COX4  phenotypically active                    1

# context switch: different compound, same phenotypically active
Inquiry: I would be grateful if you could share the reported phenotypically active for NS(=O)(=O)c1cc(Cl)c(Cl)c(S(N)(=O)=O)c1 [diclofenamide] .
Reply text: 0

---

Test system: HepG2-TUBA1B-RELA
PROTOCOL: phenotypically active (imaging signature differs from DMSO and reproducible) at any of 0.3-9 uM (binary (1 = active, 0 = inactive)); higher = active
CONDITION INFO: treatment time: 24 h
Where a name gives a salt, the structure may show the parent alone.
Permitted responses: active, inactive

Some entries whose results are on file:
>>> df
                                   compound     group
0  O=C(O)C(CO)c1ccccc1 (configuration not stated) [Tropic acid]  inactive
1  COc1ccc2c3c1O[C@H]1C[C@@H](O)C=C[C@@]31CCN(C)C2 [galantamine]  inactive
2  C=C1C(=O)O[C@@H]2[C@H]3O[C@]3(C)CCC=C(C)CC[C@@H]12 [Parthenolide]  inactive
3  O=[N+]([O-])c1c(Nc2cc(F)cc(Cl)c2)ccc2nonc12  inactive
4    N#Cc1c(NC(=O)c2cccc3ccccc23)sc2c1CCCC2    active

Inquiry: Record request — test call for CC(=O)N1CCN(C)CC1 [1-Acetyl-4-methylpiperazine hydrochloride]
Reply text: inactive

Inquiry: And what about the compound CCC1(c2ccccc2)NC(=O)N(C)C1=O (configuration not stated) [Mephenytoin] ?
Reply text: inactive

Inquiry: And what about the compound `O=C(NOC[C@H](O)CO)c1ccc(F)c(F)c1Nc1ccc(I)cc1F` ?
Reply text: active

Inquiry: And what about the compound CC[C@H](CO)Nc1nc(Nc2cccc(-c3ccccn3)c2)c2ncn(C(C)C)c2n1 [(R)-DRF053 dihydrochloride] ?
Reply text: active

Inquiry: And what about the compound `COc1ccc(CNC(=O)Nc2ncc([N+](=O)[O-])s2)cc1` ?
Reply text: inactive

Inquiry: And what about the compound `COc1ccc(C2(CNC(=O)c3ccc(NC(=O)c4ccco4)cc3)CCOCC2)cc1` ?
Reply text: inactive

Inquiry: And what about the compound O=C(O)CCc1ccccc1 [Hydrocinnamic acid] ?
Reply text: inactive

---

System: HepG2-TUBA1B-RELA
PROTOCOL: phenotypically active (imaging signature differs from DMSO and reproducible) at any of 0.3-9 uM (binary (1 = active, 0 = inactive)); higher = active
CONDITION INFO: treatment time: 24 h
Permitted responses: label 1 (active), label 0 (inactive)

Some entries whose results are on file:
>>> print(df.to_string())
                                   molecule    group
0  C[C@H](N[C@@H](CCc1ccccc1)C(=O)O)C(=O)N1CCC[C@H]1C(=O)O  label 0
1  OCc1ccccc1O[C@@H]1O[C@H](CO)[C@@H](O)[C@H](O)[C@H]1O  label 0
2   O=C(Nc1ccccc1)N1CCC(Cc2cnc3ccccc3c2)CC1  label 1
3           COc1ccc(CN(CCN(C)C)c2ccccn2)cc1  label 0
4  CC1=C(/C=C/C(C)=C/C=C/C(C)=C/C(=O)O)C(C)(C)CCC1  label 0
5  CCOC(=O)c1ccc(N2NC(=O)/C(=C/c3ccc([N+](=O)[O-])o3)C2=O)cc1  label 0
6  CCOC(=O)CCNc1cc(N2CCc3ccccc3CC2)nc(-c2cccnc2)n1  label 0
7  CCO[C@@H](Cc1ccc(OCCc2ccc(OS(C)(=O)=O)cc2)cc1)C(=O)O  label 0
8                   Nc1ncnc2c1cnn2-c1ccccc1  label 0
9  COc1ccc(-c2ccc3ncc4c(c3c2)n(-c2ccc(N3CCNCC3)c(C(F)(F)F)c2)c(=O)n4C)cn1  label 1

Inquiry: Record request — test call for `C[C@H]1[C@H](C)CC[C@]2(C(=O)O)CC[C@]3(C)C(=CC[C@@H]4[C@@]5(C)CC[C@H](O)C(C)(C)[C@@H]5CC[C@]43C)[C@H]12`
Reply text: label 0

Inquiry: And what about the molecule `Cc1cnc(NC(=O)C2=C(O)c3ccccc3S(=O)(=O)N2C)s1` ?
Reply text: label 0

Inquiry: And what about the molecule `N#Cc1cccc(-c2c[nH]c3ncnc(N4CCOCC4)c23)c1` ?
Reply text: label 1

Source of measurements: the supplement of paper PMC7411054
